Listed here: items and their measured inhibition.
# target-or-system: Testis-specific serine/threonine-protein kinase 2 (Homo sapiens) (UniProt Q96PF2);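 further: values are mean inhibition of TSSK2 activity from the GSK PKIS profiling panel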
# Sequence (whole entry): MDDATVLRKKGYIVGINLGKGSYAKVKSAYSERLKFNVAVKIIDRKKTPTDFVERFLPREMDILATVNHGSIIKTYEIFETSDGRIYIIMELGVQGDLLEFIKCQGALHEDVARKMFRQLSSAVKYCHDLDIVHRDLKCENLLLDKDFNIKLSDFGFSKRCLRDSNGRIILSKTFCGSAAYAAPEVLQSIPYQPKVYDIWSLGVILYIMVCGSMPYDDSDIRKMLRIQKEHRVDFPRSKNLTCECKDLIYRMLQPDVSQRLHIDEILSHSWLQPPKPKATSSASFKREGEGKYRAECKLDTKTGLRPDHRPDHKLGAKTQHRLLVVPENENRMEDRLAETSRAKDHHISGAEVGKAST
# assay-setup: at 0.1 µM

compound | units-label | inhibition
NC(=O)Cc1ccccc1Oc1nccc(-c2c(-c3ccc(F)cc3)ncn2C2CCNCC2)n1 | % | 1.16
C/C(Nc1ccc(S(N)(=O)=O)cc1)=C1/C(=O)Nc2ccccc21 | % | -0.65
O=C(Nc1n[nH]c2nc(-c3ccco3)ccc12)C1CC1 | % | 0.63
NC(=O)c1cc(-c2ccc(F)cc2)cc(-c2ccncc2)c1N | % | 2.71
Fc1ccc(-c2ncn(CCCN3CCOCC3)c2-c2ccncc2)cc1 | % | -1.62
Cc1nnc(-c2ccc(C)c(-c3ccc(C(=O)NCc4ccc(Cl)cc4)cc3)c2)o1 | % | 1.65
NS(=O)(=O)c1ccc(Nc2cc(-c3ccc(O)c(F)c3)n[nH]2)cc1 | % | -3.53
COc1cccc(-n2cnc3c(N/N=C/c4ccncc4)ncnc32)c1 | % | 0.37
CCN(CC)Cc1ccc(Nc2nccc(-c3cnn4ncccc34)n2)cc1 | % | 0.81
O=C(Nc1n[nH]c2nc(-c3ccc(O)cc3)c(Br)cc12)C1CC1 | % | 3.73
CN(C)c1ccc2c(c1)/C(=C/Nc1ccc(S(N)(=O)=O)cc1)C(=O)N2 | % | 0.44
COc1ccc2cc(-c3c(-c4ccncc4)nc(-c4ccc([S+](C)[O-])cc4C)n3C)ccc2c1 (stereo not given) | % | 0.06
C[C@@H](Oc1cc(-n2cnc3ccc(OC4CCN(C)CC4)cc32)sc1C(N)=O)c1ccccc1Cl | % | 2.61
O=C(Nc1n[nH]c2cc(-c3ccccc3)ccc12)C1CC1 | % | 1.41
CS(=O)(=O)CCNCc1ccc(-c2ccc3ncnc(Nc4ccc(OCc5ccccc5)c(Br)c4)c3c2)o1 | % | 1.22
CCS(=O)(=O)c1ccc(OC)c(Nc2ncc(-c3ccccc3Cl)o2)c1 | % | 1.6
CN(c1ccc(NC(=O)Nc2c(Cl)cccc2Cl)cc1)c1ccnc(Nc2cccc(CS(C)(=O)=O)c2)n1 | % | 0.55
COc1cc(N2CCN(C(C)C)CC2)ccc1Nc1nc(Nc2ccc(F)cc2C(=O)NC[C@@H](O)CO)c2cc[nH]c2n1 | % | 15.7
Nc1nccc(-c2c(-c3ccc(F)cc3)ncn2C2CCC(O)CC2)n1 (stereo not given) | % | -1.46
Cc1ccc(C(=O)NC2CCC2)cc1-c1ccc(C(=O)NCC2CC2)cc1 | % | 0.09

====

Listed here: items and their measured inhibition.
# target-or-system: Phosphorylase b kinase gamma catalytic chain, skeletal muscle/heart isoform (Homo sapiens) (UniProt Q16816);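 further: values are averaged percent inhibition of PHKG1 kinase activity, from the GSK PKIS inhibitor-set screen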
# Sequence (Q16816 whole entry, looked up, canonical isoform): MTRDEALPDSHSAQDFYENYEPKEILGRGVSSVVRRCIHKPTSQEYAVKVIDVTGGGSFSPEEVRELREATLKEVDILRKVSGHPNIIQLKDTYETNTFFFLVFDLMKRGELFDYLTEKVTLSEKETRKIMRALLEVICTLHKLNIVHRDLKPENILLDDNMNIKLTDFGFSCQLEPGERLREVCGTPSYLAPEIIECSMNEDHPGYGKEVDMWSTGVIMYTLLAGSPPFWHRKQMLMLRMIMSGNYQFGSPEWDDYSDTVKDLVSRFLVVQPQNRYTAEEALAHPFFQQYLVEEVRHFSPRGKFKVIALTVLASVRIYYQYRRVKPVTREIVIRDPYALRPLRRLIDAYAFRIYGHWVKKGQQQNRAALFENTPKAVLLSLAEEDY
# assay-setup: at 0.1 µM

compound | inhibition, %
O=C(Nc1n[nH]c2cc(-c3ccccc3)ccc12)C1CC1 | 8.27
C[C@@H](Oc1cc(-n2cnc3ccc(OCC4CCN(C)CC4)cc32)sc1C(N)=O)c1ccccc1Cl | 2.43
NS(=O)(=O)c1ccc(Nc2cc(-c3ccc(O)c(F)c3)n[nH]2)cc1 | -0.19
Nc1nccc(-c2c(-c3ccc(F)cc3)ncn2C2CCC(O)CC2)n1 (stereo not given) | -1.17
Fc1ccc(-c2ncn(C3CCNCC3)c2-c2ccnc(Oc3ccc(F)c(F)c3)n2)cc1 | 6.75

====

# target-or-system: MAP/microtubule affinity-regulating kinase 3 (Homo sapiens);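 further: mean percent inhibition of MARK3 kinase activity, measured within the GSK PKIS screening panel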
# assay-setup: at 0.1 µM
Listed here: items and their measured inhibition.

compound | units-label | inhibition
Cc1ccc(C(=O)NC(C)C)cc1-c1ccc(C(=O)NCC2CC2)cc1 | % | 0.19
NC(=O)c1cc(-c2ccc(F)cc2)cc(-c2ccncc2)c1N | % | 3.27
N#Cc1ccc(Oc2nccc(-c3c(-c4ccc(F)cc4)ncn3C3CCNCC3)n2)cc1 | % | 1.6
O=C1Nc2ccc(I)cc2C1=Cc1cc(Br)c(O)c(Br)c1 | % | -0.57
C/C(Nc1ccc(S(N)(=O)=O)cc1)=C1/C(=O)Nc2ccccc21 | % | 2.37
CCS(=O)(=O)c1ccc(OC)c(Nc2ncc(-c3ccccc3Cl)o2)c1 | % | 1.45
NC(=O)c1cc(-c2ccncc2)cc(-c2ccccc2)c1N | % | 5.42
C[C@@H](Oc1cc(-n2cnc3ccc(OC4CCN(C)CC4)cc32)sc1C(N)=O)c1ccccc1Cl | % | 4.33
Fc1ccc(-c2c(-c3ccncc3)nc3n2CCS3)cc1 | % | 1.44
CN(C)CCOc1ccc(-c2cc(-c3ccc4c(c3)CCC4=NO)c(-c3ccncc3)o2)cc1 | % | -5.74
NCc1ccc(-n2c(-c3nonc3N)nc3cnccc32)cc1 | % | 5.76
COc1cc2ncn(-c3cc(OCCc4ccccc4)c(C(N)=O)s3)c2cc1OC | % | 3.88
O=C1Nc2ccccc2/C1=C/Nc1ccc(-n2cncn2)cc1 | % | 3.28
COc1ccc2cc(-c3c(-c4ccncc4)nc(-c4ccc(S(C)(=O)=O)cc4C)n3C)ccc2c1 | % | 1.58
CS(=O)(=O)CCNCc1ccc(-c2ccc3ncnc(Nc4ccc(OCc5ccccc5)c(Br)c4)c3c2)o1 | % | 3.89
CCc1ccc(Oc2nccc(-c3c(-c4ccc(F)cc4)ncn3C3CCNCC3)n2)cc1 | % | 3.13
COc1ccc2ncn(-c3cc(O[C@H](C)c4ccccc4Cl)c(C(N)=O)s3)c2c1 | % | 3.81
CS(=O)(=O)CCNCc1cc(-c2cc3c(Nc4ccc(OCc5cccc(F)c5)c(Cl)c4)ncnc3s2)cs1 | % | 0.84
NC(=O)c1ccc(Oc2nccc(-c3c(-c4ccc(F)cc4)ncn3C3CCNCC3)n2)cc1 | % | 3.42
CCN(CC)Cc1ccc(Nc2nccc(-c3cnn4ncccc34)n2)cc1 | % | 4.34
NS(=O)(=O)c1ccc(Nc2cc(-c3ccc(O)c(F)c3)n[nH]2)cc1 | % | 0.26
Fc1ccc(-c2nc3n(c2-c2ccncc2)CCS3)cc1 | % | 3.87
COc1cc(Nc2ncc3c(C)nc(-c4cccc(Oc5ccccc5)c4)n3n2)cc(OC)c1OC | % | 3.73
Cc1ccc(NC(=O)c2ccoc2)cc1-c1ccc(C(=O)NCC2CC2)cc1 | % | 1.61
COc1ccc2cc(-c3c(-c4ccncc4)nc(-c4ccc([S+](C)[O-])cc4C)n3C)ccc2c1 (stereo not given) | % | 0.61

====

# target-or-system: Phosphatidylinositol 4-kinase beta (Homo sapiens);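 further: values are mean percent inhibition of PI4K-beta activity, averaged over replicate measurements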
# assay-setup: at 1 µM

molecule | inhibition, %
C[C@@H](Oc1cc(-n2cnc3ccc(OC4CCN(C)CC4)cc32)sc1C(N)=O)c1ccccc1Cl | 3.72
CS(=O)(=O)CCNCc1cc(-c2cc3c(Nc4ccc(OCc5cccc(F)c5)c(Cl)c4)ncnc3s2)cs1 | 3.94
COc1ccc2cc(-c3c(-c4ccncc4)nc(-c4ccc([S+](C)[O-])cc4C)n3C)ccc2c1 (stereo not given) | -0.88
COc1cc2ncn(-c3cc(OCc4cccs4)c(C(N)=O)s3)c2cc1OC | -3.17
CN(c1ccc(NC(=O)Nc2c(Cl)cccc2Cl)cc1)c1ccnc(Nc2cccc(CS(C)(=O)=O)c2)n1 | 3.73
CCN(CC)Cc1ccc(Nc2nccc(-c3cnn4ncccc34)n2)cc1 | 4.5
CN(C)c1ccc2c(c1)/C(=C/Nc1ccc(S(N)(=O)=O)cc1)C(=O)N2 | 3.23
O=C(Nc1ccc(Oc2ccc3[nH]c(NC(=O)c4ccccc4)nc3c2)cc1)Nc1cc(C(F)(F)F)ccc1F | -2.27
N#Cc1ccc(Oc2nccc(-c3c(-c4ccc(F)cc4)ncn3C3CCNCC3)n2)cc1 | 1.85
c1ccc(-c2n[nH]cc2-c2ccnc(-c3ccc(OCCN4CCOCC4)cc3)c2)nc1 | -1.19
COc1cc2ncn(-c3cc(OCc4ccccc4C(F)(F)F)c(C(C)=O)s3)c2cc1OC | -4.62
CN1CCN(CCCNc2nc3ccc(Oc4ccc(NC(=O)Nc5cc(C(F)(F)F)ccc5F)cc4)cc3[nH]2)CC1 | -2.72
NC(=O)c1cc(-c2ccncc2)cc(-c2ccccc2)c1N | 3.86
Fc1ccc(-c2nc3n(c2-c2ccncc2)CCS3)cc1 | 0.29
COc1ccc2ncn(-c3cc(O[C@H](C)c4ccccc4Cl)c(C(N)=O)s3)c2c1 | -2.87
C#Cc1cccc(Nc2ncnc3ccc(OCCCCNCCS(C)(=O)=O)cc23)c1 | -1.03
CN(C)CCOc1ccc(-c2cc(-c3ccc4c(c3)CCC4=NO)c(-c3ccncc3)o2)cc1 | 2.02
Fc1ccc(-c2ncn(C3CCNCC3)c2-c2ccnc(Oc3ccc4c(c3)OCO4)n2)cc1 | 4.42
c1ccc(Oc2ccc(Nc3ncc(-c4ccccc4)o3)cc2)cc1 | 4.73
Clc1ccc(CNc2nccc(-c3cnn4ncccc34)n2)cc1 | 1.28
NS(=O)(=O)c1ccc(Nc2cc(-c3ccc(O)c(F)c3)n[nH]2)cc1 | 9.37
COc1cc(N2CCN(C(C)C)CC2)ccc1Nc1nc(Nc2ccc(F)cc2C(=O)NC[C@@H](O)CO)c2cc[nH]c2n1 | -1.08
Cc1ccc(C(=O)NC2CCC2)cc1-c1ccc(C(=O)NCC2CC2)cc1 | 0.35
NC(=O)c1ccc(Oc2nccc(-c3c(-c4ccc(F)cc4)ncn3C3CCNCC3)n2)cc1 | 2.71
CN(C)CCCNc1nccc(-c2c(-c3ccc(F)cc3)nn3cc(C(F)(F)F)ccc23)n1 | 11.1
COc1ccc(-c2ccc3c(NC(=O)C4CC4)n[nH]c3n2)cc1 | -0.19
CCc1cccc(CC)c1/C=C/c1cncc(C(=O)NC)c1 | -0.43
CCc1nccc2c1nc(-c1nonc1N)n2CC | 1.82
Fc1ccc(-c2ncn(CCCN3CCOCC3)c2-c2ccncc2)cc1 | -0.65
CCc1ccc(Oc2nccc(-c3c(-c4ccc(F)cc4)ncn3C3CCNCC3)n2)cc1 | 2.82
COc1ccc2cc(-c3c(-c4ccncc4)nc(-c4ccc(S(C)(=O)=O)cc4C)n3C)ccc2c1 | 0.34
O=C(NCC1CC1)c1ccc(-c2cccc(C(=O)NC3CC3)c2)cc1 | -1.95
Cc1nnc(-c2ccc(C)c(-c3ccc(C(=O)NCc4ccc(Cl)cc4)cc3)c2)o1 | -0.13
O=C1Nc2ccccc2/C1=C/Nc1ccc(-n2cncn2)cc1 | -9.88
Fc1ccc(-c2ncn(C3CCNCC3)c2-c2ccnc(Oc3ccc(Oc4ccccc4)cc3)n2)cc1 | 5.8
